- Read-out: Human Leukocyte Antigen - DR isotype (HLADR), HLA-DRA (gene 3122)
- test-name: BSK_BE3C_HLADR: BioMAP Diversity Plus: BE3C Assay for Human Leukocyte Antigen - DR isotype (HLADR) Biomarker Activity (AID 2283032)
- applied-conditions: primary human bronchial epithelial cells; actives raise or lower the signal
The source made the active and inactive calls. Rule for the calls: active = hit-call score of the fitted dose curve at least 0.9, where 1 is the maximum; inactive = score below 0.9.
Outcome codes: True = active, False = inactive

In [3]: df
Out[3]:
                                   compound  assigned_label
0                                 OC1CCCCC1           False
1         O=c1c(-c2ccc(O)cc2)coc2cc(O)ccc12           False
2                 CCCCCCCCCCCCCC[N+](C)(C)C            True
3                      CN1CCC[C@H]1c1cccnc1           False
4              c1ccc2cc3c(ccc4ccccc43)cc2c1           False
5               COCC(C)O (stereo not given)           False
6  Cc1cc(CCN2CCN(c3nsc4ccccc34)CC2)cc2c1NC(=O)CC2(C)C            True
7         O=C(OCCOCCOC(=O)c1ccccc1)c1ccccc1           False
8  CCc1nn(C2CCCCC2)c2cc(C3(C#N)CCC(C(=O)O)CC3)ccc12 (stereo not given)            True
9  NC(=O)N(O)[C@@H]1C=C[C@H](Oc2cccc(Oc3ccc(F)cc3)c2)C1           False
